tested on: PRMT1 (protein arginine N-methyltransferase 1); assay: PRMT1 binders on small-molecule microarrays, primary screen, biochemical, small-molecule microarray, 635 nm fluorescence (AID 1088); conditions: small-molecule microarray binding, higher = more signal
Label 1.0 when composite z-score is at or above 0.5; anything below gets 0.0.

Recorded results for 4 compounds are shown here.
• CC[C@H]1C2=C3C(CC[C@H]4C(OCc5ccc(F)cc5C(F)(F)F)OC[C@](C)([C@@H]34)N(C(=O)OC(C)(C)C)C2)C(COC(C)=O)C1COC(C)=O (stereo partly drawn) = 0.0
• COCCCNC(=O)[C@@]1(CCC(=O)OC(C)(C)C)N=C(c2ccc(OCCCO)cc2)O[C@H]1c1ccccc1 = 1.0
• CCCCCCc1nc(-c2ccc(OC)nc2)c(C)c2c1[Si](C(C)C)(C(C)C)OC2 = 0.0
• O=C1N(Cc2ccccc2)Cc2ccccc2C[C@@]12COC(c1ccc(OCCCO)cc1)=N2 = 1.0

## Task Hi team, for `COc1ccc(CCNC(=O)[C@@H]2c3ccccc3C(=O)N(Cc3cc(F)cc(C(F)(F)F)c3)[C@H]2c2ccc(CO)cc2)cc1` , is the recorded composite z-score at or above 0.5?
## Result 1.0

## Task Can `CCCCC(=C=CC[C@@H](O)c1ccccc1OCCO)C[C@@H](O)c1ccccn1` be said to have composite z-score at or above 0.5?
## Result 1.0

## Task Could you verify whether the entry CN1C(=O)C2C=CC(C(O)c3ccc([N+](=O)[O-])cc3)N(Nc3ccccc3)C2C1=O (stereo not drawn) shows composite z-score of no less than 0.5?
## Result 1.0

## Task # bool: composite z-score of `O=C1OC[C@@H](c2ccccc2)n2cc(/C=C/c3ccccc3)cc21` >= 0.5
## Result 0.0

Reference source for all entries: PubChem BioAssay
